Provenance of the data: patent US9931308B2

target-system: TRPA1 (Homo sapiens, UniProt O75762)
Sequence (O75762 whole entry, species assumed): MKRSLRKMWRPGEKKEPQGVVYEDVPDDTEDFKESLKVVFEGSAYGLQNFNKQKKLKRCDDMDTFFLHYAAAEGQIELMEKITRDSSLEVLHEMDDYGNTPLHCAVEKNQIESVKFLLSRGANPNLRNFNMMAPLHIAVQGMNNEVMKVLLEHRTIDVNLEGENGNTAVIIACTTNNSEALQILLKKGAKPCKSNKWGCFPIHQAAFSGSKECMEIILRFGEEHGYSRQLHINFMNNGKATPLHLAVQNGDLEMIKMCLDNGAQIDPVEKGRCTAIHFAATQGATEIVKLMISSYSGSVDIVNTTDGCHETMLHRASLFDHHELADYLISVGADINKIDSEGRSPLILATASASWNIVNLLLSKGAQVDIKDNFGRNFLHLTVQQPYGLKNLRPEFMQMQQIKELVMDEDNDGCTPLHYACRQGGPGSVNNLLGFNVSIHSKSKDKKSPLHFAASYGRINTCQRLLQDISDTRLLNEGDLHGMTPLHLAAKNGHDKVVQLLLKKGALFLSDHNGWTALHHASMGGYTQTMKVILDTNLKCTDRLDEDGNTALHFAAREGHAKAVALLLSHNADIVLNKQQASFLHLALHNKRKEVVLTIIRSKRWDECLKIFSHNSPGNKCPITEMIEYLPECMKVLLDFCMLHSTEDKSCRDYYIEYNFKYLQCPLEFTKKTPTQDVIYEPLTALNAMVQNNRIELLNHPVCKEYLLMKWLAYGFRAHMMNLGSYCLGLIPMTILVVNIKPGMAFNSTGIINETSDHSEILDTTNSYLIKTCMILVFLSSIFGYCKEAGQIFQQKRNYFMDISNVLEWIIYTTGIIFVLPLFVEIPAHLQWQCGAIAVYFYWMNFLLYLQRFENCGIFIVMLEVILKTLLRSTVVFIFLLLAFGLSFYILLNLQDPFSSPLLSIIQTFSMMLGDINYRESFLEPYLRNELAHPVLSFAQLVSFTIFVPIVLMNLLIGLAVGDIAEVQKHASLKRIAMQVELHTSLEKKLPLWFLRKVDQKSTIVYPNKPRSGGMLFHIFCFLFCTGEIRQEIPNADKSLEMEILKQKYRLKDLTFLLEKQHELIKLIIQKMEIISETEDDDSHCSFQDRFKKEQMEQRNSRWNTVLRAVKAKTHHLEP
assay-explanation: in vitro activation of TRPA1 in cells expressing TRP channels (FIG. 7)
Assay type: cell-based
run-conditions: FIG. 7, circles; read-out: EC-50 TRPA1 activation
assay-endpoint: EC50

{"columns": ["compound", "observed-measurement"],
 "data": [
  ["COc1ccc(C=O)cc1 [p-anisaldehyde]", "~100 µM"]
]}

---

target-system: TRPV1 (Homo sapiens, UniProt Q8NER1)
Construct: an “empty” cell control implies recombinant expression
Sequence (Q8NER1 whole entry, species assumed): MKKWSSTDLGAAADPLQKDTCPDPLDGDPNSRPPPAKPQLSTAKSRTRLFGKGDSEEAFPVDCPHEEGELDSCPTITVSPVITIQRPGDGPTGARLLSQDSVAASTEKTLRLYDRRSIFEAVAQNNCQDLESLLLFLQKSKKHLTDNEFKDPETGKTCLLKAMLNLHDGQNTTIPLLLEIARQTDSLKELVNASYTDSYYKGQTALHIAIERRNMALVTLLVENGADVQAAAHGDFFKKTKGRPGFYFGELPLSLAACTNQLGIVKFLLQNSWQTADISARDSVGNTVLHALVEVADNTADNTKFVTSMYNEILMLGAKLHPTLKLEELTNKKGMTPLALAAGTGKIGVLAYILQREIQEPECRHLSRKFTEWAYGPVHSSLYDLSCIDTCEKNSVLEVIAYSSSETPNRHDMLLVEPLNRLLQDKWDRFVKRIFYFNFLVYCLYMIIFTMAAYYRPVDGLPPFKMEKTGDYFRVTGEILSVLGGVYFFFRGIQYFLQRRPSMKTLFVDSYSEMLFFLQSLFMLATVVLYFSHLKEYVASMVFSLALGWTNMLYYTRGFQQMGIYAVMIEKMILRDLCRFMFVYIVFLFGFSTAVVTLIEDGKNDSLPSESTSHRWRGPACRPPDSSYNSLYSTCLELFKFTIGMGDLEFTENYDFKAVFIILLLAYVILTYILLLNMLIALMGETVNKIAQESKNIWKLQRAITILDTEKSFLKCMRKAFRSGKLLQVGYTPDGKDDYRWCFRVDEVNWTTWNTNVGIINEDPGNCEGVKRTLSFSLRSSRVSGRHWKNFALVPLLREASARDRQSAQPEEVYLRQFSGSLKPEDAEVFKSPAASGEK
assay-explanation: in vitro activation of TRPV1 in cells expressing TRP channels (FIG. 7)
run-conditions: FIG. 7, squares; read-out: EC 50 TRPV1 activation
assay-endpoint: EC50

{"columns": ["molecule", "observed-measurement"],
 "data": [
  ["COc1ccc(C=O)cc1 [p-anisaldehyde]", "~500 µM"]
]}
